// provenance: patent US9611251B2

pKi: −log10 of the molar value.
What follows is a record of pKi for human orexin 2 receptor (Homo sapiens (Human), UniProt O43614).
Property name: pKi

[[record]]
compound = "C[C@H]1[C@H](Oc2ncc(C(F)(F)F)cn2)CCCN1C(=O)c1ccccc1-c1ncc(F)cn1 [Example 165]"
property_name = "pKi"
endpoint_result = 5.36


a = C[C@H]1[C@H](Oc2ccc(C(F)(F)F)cn2)CCCN1C(=O)c1ccc(F)cc1-c1ncccn1 [Example 139]
b = C[C@H]1[C@H](Oc2ccc(Cl)cn2)CCCN1C(=O)c1ncccc1-c1ncccn1 [Example 218]
Prompt line: Decide: a or b , by lowest recorded pKi. Let me know the label of the one you choose.
Response line: a

====

What follows is a record of pKi for human orexin 2 receptor (Homo sapiens (Human)).
pKi: −log10 of the molar value.
Property name: pKi

Answered examples (2):
[[record]]
molecule = "Cc1ccc(C(=O)N2CCC[C@@H](Nc3cnc(Cl)cn3)[C@@H]2C)c(-n2nccn2)c1 (relative stereo)"
property_name = "pKi"
endpoint_result = 5.72

[[record]]
molecule = "C[C@H]1[C@H](Oc2ccc(C(F)(F)F)cn2)CCCN1C(=O)c1cccc(F)c1-c1ncccn1"
property_name = "pKi"
endpoint_result = 6.22


1 = C[C@H]1[C@H](Oc2cnc(C(F)(F)F)cn2)CCCN1C(=O)c1ccccc1-n1nccn1
2 = Cc1ccc(-c2ncccn2)c(C(=O)N2CCC[C@@H](Oc3ncc(C(F)(F)F)cc3F)[C@@H]2C)n1
Prompt line: Lab notebook, comparison: 1 versus 2 , higher pKi goes to which? Let me know the label of the one you choose.
Response line: 2
(2: 6.43, 1: 6.04)

====

- Target under test: human orexin 1 receptor (Homo sapiens)
- Test name: Human orexin 1 receptor radioligand binding
- Condition details: human orexin 1 receptor radioligand binding; averages of 2-20 runs; read-out: hOX1 Ki
pKi: −log10 of the molar value.
Property name: pKi

[[record]]
molecule = "Cc1cnc(-n2nccn2)c(C(=O)N2CCC[C@@H](Oc3ccc(Cl)cn3)[C@@H]2C)c1"
endpoint_result = 7.11


a = C[C@H]1[C@H](Oc2ccc(C(F)(F)F)cn2)CCCN1C(=O)c1cccc(F)c1-c1ncccn1
b = Cc1cnc(C(=O)N2CCC[C@@H](Nc3cnc(Cl)cn3)[C@@H]2C)c(-n2nccn2)c1 (relative stereo)
Prompt line: Decide: a or b , by lowest recorded pKi. Let me know the label of the one you choose.
Response line: b
(b: 6.83, a: 7.74)

1 = Cc1cnc(-n2nccn2)c(C(=O)N2CCC[C@@H](Oc3ncc(C(F)(F)F)cc3F)[C@@H]2C)c1
2 = C[C@H]1[C@H](Oc2ncc(C(F)(F)F)cn2)CCCN1C(=O)c1ccccc1-c1ncc(F)cn1
3 = C[C@H]1[C@H](Oc2ncc(C(F)(F)F)cc2F)CCCN1C(=O)c1cccc(F)c1-c1ncccn1
Prompt line: Hello, I need these entries ordered by pKi, highest reading first. Thanks! To answer, arrange all of the labels according to the requested order.
Response line: 3, 1, 2

====

- Target under test: human orexin 1 receptor (Homo sapiens)
- Test name: Human orexin 1 receptor radioligand binding
- Condition details: human orexin 1 receptor radioligand binding; averages of 2-20 runs; read-out: hOX1 Ki
pKi: −log10 of the molar value.
Property name: pKi

Answered examples (5):
[[record]]
compound = "C[C@H]1[C@H](Oc2cnc(C(F)(F)F)cn2)CCCN1C(=O)c1cc(F)ccc1-c1ncco1"
property_name = "pKi"
endpoint_result = 7.17

[[record]]
compound = "Cc1cnc(C(=O)N2CCC[C@@H](Oc3ccc(C(F)(F)F)cn3)[C@@H]2C)c(-n2nccn2)c1"
property_name = "pKi"
endpoint_result = 7.51

[[record]]
compound = "C[C@H]1[C@H](Nc2ncc(C(F)(F)F)cn2)CCCN1C(=O)c1ccc(F)cc1-n1nccn1 (relative stereo)"
property_name = "pKi"
endpoint_result = 7.04

[[record]]
compound = "Cc1ccc(C(=O)N2CCC[C@@H](Oc3cnc(C(F)(F)F)cn3)[C@@H]2C)c(-n2nccn2)c1"
property_name = "pKi"
endpoint_result = 7.37

[[record]]
compound = "Cc1cnc(-c2ncccn2)c(C(=O)N2CCC[C@@H](Oc3ccc(C(F)(F)F)cn3)[C@@H]2C)c1"
property_name = "pKi"
endpoint_result = 6.91


I = Cc1cnc(C(=O)N2CCC[C@@H](Nc3ccc(Cl)cn3)[C@@H]2C)c(-c2ncco2)c1
II = C[C@H]1[C@H](Nc2nc3ccccc3o2)CCCN1C(=O)c1cccc(F)c1-c1ncccn1 (relative stereo)
Prompt line: Decide: I or II , by lowest recorded pKi. Let me know the label of the one you choose.
Response line: I
